# target_desc: Retinoic acid receptor RXR-alpha (Homo sapiens) (UniProt P19793)
# Sequence (P19793 whole entry, looked up): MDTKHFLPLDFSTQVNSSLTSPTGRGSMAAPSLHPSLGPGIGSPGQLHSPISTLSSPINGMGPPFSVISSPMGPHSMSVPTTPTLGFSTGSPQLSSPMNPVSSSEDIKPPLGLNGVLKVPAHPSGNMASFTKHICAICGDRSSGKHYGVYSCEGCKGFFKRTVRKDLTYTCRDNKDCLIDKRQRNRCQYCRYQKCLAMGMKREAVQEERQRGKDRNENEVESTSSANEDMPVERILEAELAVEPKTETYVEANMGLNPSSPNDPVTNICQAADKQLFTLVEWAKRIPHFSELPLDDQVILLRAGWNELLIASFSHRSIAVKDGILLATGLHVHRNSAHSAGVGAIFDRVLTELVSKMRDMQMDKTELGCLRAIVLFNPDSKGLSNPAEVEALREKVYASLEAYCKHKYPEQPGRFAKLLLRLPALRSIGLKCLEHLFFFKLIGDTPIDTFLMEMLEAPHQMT
# method_notes: qHTS assay for small molecule antagonists of retinoid X receptor alpha signaling (AID 588546);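 note: cells stimulated with 9-cis-retinoic acid as agonist; % is set by controls: 0 for no effect and ±100 for the full control effect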
# recorded_conditions: HEK293T RXRa-UAS-bla, beta-lactamase ratio, antagonist mode
# Excerpt: NIH Chemical Genomics Center [NCGC] U.S. Environmental Protection Agency [EPA] National Institutes of Environmental Health Sciences [NIEHS] National Toxicology Program [NTP] NCGC Assay Overview The Retinoid X receptor (RXR), a nuclear hormone receptor is expressed in liver, spleen, placenta, epidermis, central nervous system. […]
Inconclusive results are not listed.
measured_quantity: max response (%)
Answer with a number only, understood to be in %.

-- ask Sample C=CCCCCCCC=C — what was its max response?
-- reply -6.51

-- ask Ok, now NC(=O)/N=N/C(N)=O
-- reply -2.12

-- ask Ok, now Nc1nc(-c2ccccc2)cs1
-- reply -5.77

-- ask Ok, now NCCCCCCN
-- reply 17.1

-- ask Ok, now BrC(Br)C(Br)Br
-- reply -0.43

-- ask Ok, now Cc1ccc(C)c(O)c1
-- reply 6.26

-- ask Ok, now C=Cc1ccccc1C=C
-- reply -4.16

-- ask Ok, now NC(=O)NC(N)=O
-- reply 66.5

-- ask Ok, now C(=C/c1ccccc1)/c1ccccc1
-- reply -3.93
